target entity: D2-BGL (WT D2; Pp D2-BGL) (Chaetomella raphigera, UniProt A0A068FT77, D224G/F256M/Y260D)
Construct: 722 residues, 76 kDa theoretical; alpha-mating factor secretion signal upstream (pGAPZalphaC-D2); glycosylated
Sequence (A0A068FT77 entry or part of it D224G/F256M/Y260D): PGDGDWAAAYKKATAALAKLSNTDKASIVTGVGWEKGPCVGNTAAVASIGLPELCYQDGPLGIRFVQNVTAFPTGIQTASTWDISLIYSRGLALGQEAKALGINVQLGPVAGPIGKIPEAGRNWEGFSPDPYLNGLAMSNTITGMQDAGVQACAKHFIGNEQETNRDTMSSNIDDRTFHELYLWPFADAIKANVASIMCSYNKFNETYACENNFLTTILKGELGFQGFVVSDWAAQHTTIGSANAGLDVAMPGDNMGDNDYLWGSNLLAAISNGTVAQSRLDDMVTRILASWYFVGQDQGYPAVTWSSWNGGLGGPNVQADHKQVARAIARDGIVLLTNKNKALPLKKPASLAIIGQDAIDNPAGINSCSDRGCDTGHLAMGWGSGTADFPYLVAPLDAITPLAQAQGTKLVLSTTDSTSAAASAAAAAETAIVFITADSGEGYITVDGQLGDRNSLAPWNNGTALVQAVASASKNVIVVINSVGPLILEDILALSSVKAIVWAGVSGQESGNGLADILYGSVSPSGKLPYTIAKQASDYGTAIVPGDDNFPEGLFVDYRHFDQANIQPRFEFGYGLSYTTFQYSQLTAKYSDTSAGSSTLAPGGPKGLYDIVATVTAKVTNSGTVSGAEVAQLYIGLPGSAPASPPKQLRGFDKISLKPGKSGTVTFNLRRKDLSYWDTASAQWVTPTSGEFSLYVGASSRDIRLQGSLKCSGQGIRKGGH
measurement description: inhibition of pNPG hydrolysis with […] glucose
test conditions: pNPG as substrate; 50 mM NaOAc pH 5, 55 °C; product inhibition; read-out: Mut M
result type: pKi
Answers are plain numbers, as −log10 of the molar value.

input: What does the record list as pKi for OC[C@H]1OC(O)[C@H](O)[C@@H](O)[C@@H]1O (stereo partly shown) [glucose] ?
output: 2.80
